Measured values drawn from patent US20100003246A1 for this set.

testedSystem: b-Raf(V600E) (Homo sapiens, UniProt P15056, V600E)
Construct: made in house
Sequence (P15056 whole entry V600E): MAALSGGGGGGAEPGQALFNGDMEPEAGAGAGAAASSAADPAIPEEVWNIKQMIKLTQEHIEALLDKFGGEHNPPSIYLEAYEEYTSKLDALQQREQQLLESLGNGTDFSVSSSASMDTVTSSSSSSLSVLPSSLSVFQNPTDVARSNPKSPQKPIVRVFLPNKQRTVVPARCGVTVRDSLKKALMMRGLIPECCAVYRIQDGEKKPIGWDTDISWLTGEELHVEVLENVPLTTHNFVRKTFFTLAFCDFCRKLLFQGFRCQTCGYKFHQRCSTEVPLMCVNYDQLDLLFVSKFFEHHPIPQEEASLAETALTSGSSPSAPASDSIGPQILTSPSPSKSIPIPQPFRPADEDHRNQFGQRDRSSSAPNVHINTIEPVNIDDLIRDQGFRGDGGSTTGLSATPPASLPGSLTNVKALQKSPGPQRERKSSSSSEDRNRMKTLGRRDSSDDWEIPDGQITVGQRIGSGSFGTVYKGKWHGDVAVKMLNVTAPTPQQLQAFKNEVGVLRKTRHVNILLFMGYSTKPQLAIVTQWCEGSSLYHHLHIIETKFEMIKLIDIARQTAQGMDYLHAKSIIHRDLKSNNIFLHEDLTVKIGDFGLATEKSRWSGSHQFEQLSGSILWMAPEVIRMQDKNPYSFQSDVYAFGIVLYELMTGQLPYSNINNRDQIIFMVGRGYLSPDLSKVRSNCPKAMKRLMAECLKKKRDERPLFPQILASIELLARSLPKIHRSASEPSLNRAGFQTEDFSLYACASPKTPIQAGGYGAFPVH
method: Raf/Mek Amplified Luminescence Proximity Homogeneous Assay (Alpha Screen), b-Raf(V600E)
Format: biochemical
conditionSet: mutant b-Raf(V600E), read-out: mut-b-RAF (IC50 in uM)
Description: Assay buffer: 50 mM Tris, pH 7.5, 15 mM MgCl2, 0.01% BSA, 1 mM DTT Stop buffer: 60 mM EDTA, 0.01% Tween20 Bead buffer: 50 mM Tris, pH 7.5, 0.01% Tween20 […] The Raf kinase activity reaction was started by the addition of 10 μl per well of 2×ATP diluted in assay buffer. […] A lid was placed on top of the plate and incubated for 1 hour at room temperature, then the luminescence was read on a PerkinElmer Envision instrument. […]
metricName: log10 of IC50 (log10 of the value in µM)
Please be aware that the numbers have been log10-transformed from IC50 in µM.

// solved cases for log10 of IC50 follow
[[record]]
chemicalsmiles = "COCC(=O)N1CCC[C@@H](Nc2nccc(-c3nc(-c4ccc(F)cc4)[nH]c3-c3cnc(N)c(OC)c3)n2)C1"
testedsystem = "b-Raf(V600E) (Homo sapiens, UniProt P15056, V600E)"
metricname = "log10 of IC50"
readoutnumber = -1.59

[[record]]
chemicalsmiles = "COc1cc(-c2[nH]c(-c3cccc(S(C)(=O)=O)c3)nc2-c2ccncc2)cnc1N"
testedsystem = "b-Raf(V600E) (Homo sapiens, UniProt P15056, V600E)"
metricname = "log10 of IC50"
readoutnumber = -2.06

[[record]]
chemicalsmiles = "COc1cc(-c2nc(C3CCOCC3)[nH]c2-c2ccncc2)cnc1N"
testedsystem = "b-Raf(V600E) (Homo sapiens, UniProt P15056, V600E)"
metricname = "log10 of IC50"
readoutnumber = -2.26

[[record]]
chemicalsmiles = "COc1cc(-c2[nH]c(-c3ccccc3F)nc2-c2ccncc2)cnc1N"
testedsystem = "b-Raf(V600E) (Homo sapiens, UniProt P15056, V600E)"
metricname = "log10 of IC50"
readoutnumber = -2.77

[[record]]
chemicalsmiles = "COc1cc(-c2[nH]c(C3CC3)nc2-c2ccncc2)cnc1N"
testedsystem = "b-Raf(V600E) (Homo sapiens, UniProt P15056, V600E)"
metricname = "log10 of IC50"
readoutnumber = -2.82


Problem: Which log10 of IC50 value is on record for `COc1cc(-c2nc(C(C)(C)C)n(C)c2-c2ccnc(NCC(C)C)n2)cnc1N` ?
Result: -3.22

Problem: // repeat for `CCOC(=O)N[C@@H](C)CNc1nccc(-c2[nH]c(C(C)(C)C)nc2-c2nc(OC)c(N)nc2C)n1` and report
Result: -2.96

* * *

Tested on: SU86.86 cells
method: Cell Titer-Glo cell viability assay, SU86.86
Format: cell-based
conditionSet: Homo sapiens, SU.86.86, 120 h; Pancreatic cell line SU86.86; 5 days compound incubation; 1000 cells/well
Catalogue of pEC50 readings, one per entry.
API: returns pEC50 as number; meaning -log10 of concentration in mol/L.

[[record]]
compound = "COc1cc(-c2[nH]c(-c3ccccc3)nc2-c2ccncc2)cnc1N [Compound 1]"
readoutnumber = 6.94

[[record]]
compound = "COCC(=O)N[C@@H](C)CNc1nccc(-c2[nH]c(-c3ccc(F)cc3)nc2-c2cnc(N)c(OC)n2)n1 [Compound 5]"
readoutnumber = 6.45

[[record]]
compound = "COCC(=O)N[C@@H](C)CNc1nccc(-c2[nH]c(-c3ccc(F)cc3)nc2-c2cnc(N)c(OC)c2)n1 [Compound 163]"
readoutnumber = 7.55


Problem: So what's the measured pEC50 for this one? COCC(=O)NCCNc1nccc(-c2[nH]c(-c3ccc(C(F)(F)F)cc3)nc2-c2cnc(N)c(OC)c2)n1 [Compound 85]
Result: 6.95

Problem: // next record COc1cc(-c2[nH]c(-c3ccc(F)cc3F)nc2-c2ccncc2)cnc1N [Compound 106]
Result: 6.93

* * *

testedSystem: b-Raf(V600E) (Homo sapiens, UniProt P15056, V600E)
Construct: made in house
method: Raf/Mek Amplified Luminescence Proximity Homogeneous Assay (Alpha Screen), b-Raf(V600E)
Assay type: biochemical
conditionSet: mutant b-Raf(V600E), read-out: mut-b-RAF (IC50 in uM)
metricName: log10(IC50) (log10 of the value in µM)
A value of 2 here means IC50 of 100 in µM, since values are log10.

See these solved cases before continuing.
[[record]]
chemicalsmiles = "CCOC(=O)N[C@@H](C)CNc1nccc(-c2[nH]c(C(C)(C)C)nc2-c2cnc(N)c(OC)n2)n1"
readoutnumber = -4.00

[[record]]
chemicalsmiles = "FC(F)(F)c1ccc(-c2nc(-c3ccncc3)c(-c3ccncc3)[nH]2)cc1"
readoutnumber = -0.64

[[record]]
chemicalsmiles = "COc1nc(-c2nc(C(C)(C)C)[nH]c2-c2ccnc(NC[C@H](C)NC(=O)[C@H](C)OC)n2)cnc1N"
readoutnumber = -3.70

[[record]]
chemicalsmiles = "CNc1nccc(-c2[nH]c(C(C)(C)C)nc2-c2cnc(N)c(OC)c2)n1"
readoutnumber = -4.00

[[record]]
chemicalsmiles = "COc1cc(-c2nc(C(C)(C)C)[nH]c2-c2ccnc(N[C@@H]3CCN(S(C)(=O)=O)C3)n2)cnc1N"
readoutnumber = -2.46

[[record]]
chemicalsmiles = "COc1cc(-c2[nH]c(-c3ccc(F)cc3)nc2-c2ccnc(Nc3ccc(N4C[C@@H](C)O[C@@H](C)C4)nc3)n2)cnc1N"
readoutnumber = -3.30


Problem: Request the reported log10(IC50) associated with `COc1cc(-c2[nH]c(-c3ccc4[nH]ncc4c3)nc2-c2ccncc2)cnc1N`
Result: -3.15

* * *

testedSystem: b-Raf(V600E) (Homo sapiens, UniProt P15056, V600E)
Construct: made in house
method: Raf/Mek Amplified Luminescence Proximity Homogeneous Assay (Alpha Screen), b-Raf(V600E)
Type: biochemical
conditionSet: mutant b-Raf(V600E), read-out: mut-b-RAF (IC50 in uM)
// bucketize IC50: band A = under 0.0003 µM, band B = from 0.0003 µM up to 0.003 µM, band C = 0.003 µM and over

Record excerpt, results attached:
[[record]]
chemicalsmiles = "COc1cc(-c2[nH]c(-c3ccc(F)cc3)nc2-c2ccnc(NCCNS(=O)(=O)C3CC3)n2)cnc1N"
testedsystem = "b-Raf(V600E) (Homo sapiens, UniProt P15056, V600E)"
classname = "band A"

[[record]]
chemicalsmiles = "COC(=O)N[C@@H](C)CNc1nccc(-c2[nH]c(C(C)(C)C)nc2-c2nc(OC)c(N)nc2C)n1"
testedsystem = "b-Raf(V600E) (Homo sapiens, UniProt P15056, V600E)"
classname = "band B"

[[record]]
chemicalsmiles = "COc1cc(-c2[nH]c(-c3ccccc3)nc2-c2ccnc(NCCNS(=O)(=O)C3CC3)n2)cnc1N"
testedsystem = "b-Raf(V600E) (Homo sapiens, UniProt P15056, V600E)"
classname = "band A"


Problem: Pick a category. Item: `COc1cc(-c2nc(C(C)(C)C)oc2-c2ccnc(NCC(C)C)c2)cnc1N`
Result: band A

Problem: Request: `c1ccc(-c2nc(-c3ccncc3)c(-c3ccc4cnoc4c3)[nH]2)cc1`
Result: band C

Problem: Next compound: `COc1cc(-c2nc(-c3ccccc3)[nH]c2-c2ccnc(N)c2)cnc1N`
Result: band C

Problem: Repeat for the following compound: `COc1ccc(Cl)cc1-c1nc(-c2ccncc2)c(-c2cnc(N)c(OC)c2)[nH]1`
Result: band B

Problem: Also `COc1cc(-c2[nH]c(-c3ccc(F)cc3)nc2-c2ccnc(O)n2)cnc1N` , if possible.
Result: band C

Problem: Subsequent entry: `COc1nc(-c2nc(C(C)(C)C)[nH]c2-c2ccnc(NC[C@H](C)NC(=O)OCC(C)(C)C)n2)c(C)nc1N`
Result: band B

Problem: Also `COc1cc(-c2nc(C(C)(C)C)[nH]c2-c2ccnc(Nc3ccc(C(F)(F)F)cc3)n2)cnc1N` , if possible.
Result: band A

Problem: Moving on to `Oc1ccc(-c2[nH]c(-c3ccccc3)nc2-c2ccncc2)cn1`
Result: band C

Problem: Here is the next compound: `COc1cc(-c2nc(-c3ccccc3)[nH]c2-c2ccnc(C)c2)cnc1N`
Result: band C

Problem: Next: `COc1cc(-c2nc(-c3ccccc3)[nH]c2-c2ccnc(NC[C@H](C)O)n2)cnc1N`
Result: band B

Problem: Item: `COc1cc(-c2nc(-c3ccccc3)[nH]c2-c2ccnc(N)n2)cnc1N`
Result: band B

Problem: Another compound to look at: `COc1cc(-c2[nH]c(-c3cccc(OC)c3F)nc2-c2ccncc2)cnc1N`
Result: band B

* * *

testedSystem: b-Raf(V600E) (Homo sapiens, UniProt P15056, V600E)
Construct: made in house
method: Raf/Mek Amplified Luminescence Proximity Homogeneous Assay (Alpha Screen), b-Raf(V600E)
Type: biochemical
conditionSet: mutant b-Raf(V600E), read-out: mut-b-RAF (IC50 in uM)
In this section we review reported IC50 values for a set of compounds.
Express the result in nM but write the number alone.

[[record]]
compound = "COc1cc(-c2nc(C3(O)CCN(C)CC3)[nH]c2-c2ccncc2)cnc1N [Compound 156]"
unitofmeasure = "nM"
readoutnumber = 9.3

[[record]]
compound = "COc1cc(-c2nccc(-c3[nH]c(C(C)(C)C)nc3-c3cnc(N)c(OC)c3)n2)cnc1N [Compound 186]"
unitofmeasure = "nM"
readoutnumber = 29.9

[[record]]
compound = "Nc1ncc(-c2[nH]c(-c3ccc(F)cc3)nc2-c2ccncc2)cc1F [Compound 131]"
unitofmeasure = "nM"
readoutnumber = 174

[[record]]
compound = "COC(=O)N[C@@H](C)CNc1nccc(-c2[nH]c(C3(C)CC3)nc2-c2cnc(N)c(OC)n2)n1 [Compound 251]"
unitofmeasure = "nM"
readoutnumber = 0.04

[[record]]
compound = "CCc1cc(-c2[nH]c(-c3ccc(F)cc3)nc2-c2ccncc2)cnc1N [Compound 105]"
unitofmeasure = "nM"
readoutnumber = 215

[[record]]
compound = "COc1nc(-c2nc(C(C)(C)C)[nH]c2-c2ccnc(NC[C@H](C)NC(=O)[C@H](C)OC)n2)c(C)nc1N [Compound 254]"
unitofmeasure = "nM"
readoutnumber = 3.8

[[record]]
compound = "COc1cc(-c2[nH]c(-c3cccc(S(N)(=O)=O)c3)nc2-c2ccncc2)cnc1N [Compound 132]"
unitofmeasure = "nM"
readoutnumber = 1

[[record]]
compound = "CCNc1nccc(-c2nc(-c3ccc(F)cc3)[nH]c2-c2cnc(N)c(OC)c2)n1 [Compound 174]"
unitofmeasure = "nM"
readoutnumber = 2.3


Problem: What value of measured IC50 is listed for COc1cc(-c2nc(-c3ccc(F)cc3)oc2-c2ccnc(NCC(C)C)n2)cnc1N [Compound 220] ?
Result: 2

Problem: // same read-out, input: COc1cc(-c2nc(-c3ccn(C)n3)[nH]c2-c2ccncc2)cnc1N [Compound 119]
Result: 1.9
